Documented DC50 across a set of compounds
Target: HiBit-BRG1 fusion protein (Homo sapiens)
Construct: expressed in transfected cells
Test: HiBiT-BRG1 cell-based degradation assay (Nano-Glo HiBiT Lytic Detection)
Details: stable HeLa cell line expressing HiBit-BRG1 and LgBit, 24 h incubation; read-out: BRMG1 HiBit Degradation IC50
Description: Procedure: A stable HeLa cell line expressing HiBiT-BRM was generated. On day 0, 5000 cells were seeded in 40 μL of media into each well of 384-well cell culture plates. […] The plates were shaken for 10 minutes at room temperature and the bioluminescence read using an EnVision plate reader (PerkinElmer). […] The degradation % was calculated using the following formula: % degradation=100%−100%×(LumSample−LumLC)/(LumHC−LumLC). […]

Examples with answers:
compound	assayed-target	DC50
Cc1ncsc1-c1ccc([C@H](C)NC(=O)[C@@H]2C[C@@H](O)CN2C(=O)[C@@H](c2cc(N3CCC(CN4CCc5sc6nnc(-c7ccccc7O)cc6c5C4)CC3)no2)C(C)C)cc1 [Compound 92]	HiBit-BRG1 fusion protein (Homo sapiens)	≥ 1000 nM
Cc1ncsc1-c1ccc([C@H](C)NC(=O)[C@@H]2C[C@@H](O)CN2C(=O)[C@@H](c2cc(OCCN3CC(c4sc5nnc(-c6ccccc6O)cc5c4C)C3)no2)C(C)C)cc1 [Compound 22]	HiBit-BRG1 fusion protein (Homo sapiens)	≥ 10 nM

Next:
Write down DC50 measured for item Cc1ncsc1-c1ccc(CNC(=O)[C@@H]2C[C@@H](O)CN2C(=O)[C@H](c2cc(N3CCOCC3)no2)C(C)C)c(OCCCN2CCC(c3sc4nnc(-c5ccccc5O)cc4c3C)CC2)c1 (single isomer, unassigned) [Compound 55]
≥ 1000 nM

---

Documented Dmax across a set of compounds
Biological target: HiBit-BRG1 fusion protein (Homo sapiens, UniProt P51532)
Construct: expressed in transfected cells
Sequence (P51532 whole entry, the tested form may be a part): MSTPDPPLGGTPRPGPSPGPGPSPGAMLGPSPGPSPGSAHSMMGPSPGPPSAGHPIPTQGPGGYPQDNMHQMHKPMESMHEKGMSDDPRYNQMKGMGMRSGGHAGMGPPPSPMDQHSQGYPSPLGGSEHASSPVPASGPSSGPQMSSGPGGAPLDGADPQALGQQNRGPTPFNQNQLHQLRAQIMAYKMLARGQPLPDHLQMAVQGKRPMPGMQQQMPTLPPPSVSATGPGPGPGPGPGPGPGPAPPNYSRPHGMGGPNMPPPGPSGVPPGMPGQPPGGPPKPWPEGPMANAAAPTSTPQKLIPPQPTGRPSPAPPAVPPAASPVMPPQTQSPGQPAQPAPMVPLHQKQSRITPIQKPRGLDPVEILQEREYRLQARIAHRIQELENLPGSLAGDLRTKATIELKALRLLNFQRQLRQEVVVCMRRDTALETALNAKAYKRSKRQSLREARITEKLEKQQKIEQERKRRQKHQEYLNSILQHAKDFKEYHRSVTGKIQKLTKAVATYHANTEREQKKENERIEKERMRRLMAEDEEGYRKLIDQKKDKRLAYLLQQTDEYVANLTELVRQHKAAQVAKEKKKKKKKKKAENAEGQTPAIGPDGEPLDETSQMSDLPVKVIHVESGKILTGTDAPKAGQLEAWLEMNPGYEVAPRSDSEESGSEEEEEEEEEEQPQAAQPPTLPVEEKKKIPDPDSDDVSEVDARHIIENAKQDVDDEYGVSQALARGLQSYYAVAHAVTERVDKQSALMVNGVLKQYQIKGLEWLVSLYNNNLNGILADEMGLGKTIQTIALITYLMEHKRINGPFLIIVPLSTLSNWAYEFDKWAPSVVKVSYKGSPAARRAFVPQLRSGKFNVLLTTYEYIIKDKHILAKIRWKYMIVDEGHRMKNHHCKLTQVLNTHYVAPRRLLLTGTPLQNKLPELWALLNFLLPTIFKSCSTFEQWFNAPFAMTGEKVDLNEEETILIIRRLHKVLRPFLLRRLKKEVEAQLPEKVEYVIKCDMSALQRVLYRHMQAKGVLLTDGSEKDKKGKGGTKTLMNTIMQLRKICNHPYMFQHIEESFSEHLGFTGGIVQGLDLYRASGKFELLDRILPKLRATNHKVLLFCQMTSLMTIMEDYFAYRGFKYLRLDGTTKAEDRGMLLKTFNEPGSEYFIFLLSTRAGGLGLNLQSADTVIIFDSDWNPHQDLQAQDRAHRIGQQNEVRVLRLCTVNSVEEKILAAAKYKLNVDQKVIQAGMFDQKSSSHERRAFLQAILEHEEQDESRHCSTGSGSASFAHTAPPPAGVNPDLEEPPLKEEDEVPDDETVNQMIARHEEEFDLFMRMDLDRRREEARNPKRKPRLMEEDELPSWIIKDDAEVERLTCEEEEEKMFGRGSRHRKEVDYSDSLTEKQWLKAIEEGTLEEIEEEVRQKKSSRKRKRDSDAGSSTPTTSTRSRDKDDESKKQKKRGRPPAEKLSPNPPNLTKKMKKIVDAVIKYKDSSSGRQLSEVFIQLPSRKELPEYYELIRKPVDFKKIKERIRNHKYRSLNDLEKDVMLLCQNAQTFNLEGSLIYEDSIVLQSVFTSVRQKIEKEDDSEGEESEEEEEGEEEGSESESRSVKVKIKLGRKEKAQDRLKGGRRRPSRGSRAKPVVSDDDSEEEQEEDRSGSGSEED
Experiment: HiBiT-BRG1 cell-based degradation assay (Nano-Glo HiBiT Lytic Detection)
Conditions: stable HeLa cell line expressing HiBit-BRG1 and LgBit, 24 h incubation, top dose 30 μM; read-out: BRG1 HiBit Degradation Maximum (%)

Cc1ncsc1-c1ccc(CNC(=O)[C@@H]2C[C@@H](O)CN2C(=O)[C@@H](NC(=O)CCCCC(=O)N2CCC(c3cc4cc(-c5ccccc5O)nnc4s3)CC2)C(C)(C)C)cc1 < 50%
Cc1ncsc1-c1ccc([C@H](C)NC(=O)[C@@H]2C[C@@H](O)CN2C(=O)[C@@H](c2cc(N3C[C@@H]4C[C@H]3CN4C(=O)[C@H]3CCc4sc5nnc(-c6ccccc6O)cc5c4C3)no2)C(C)C)cc1 < 50%
Cc1ncsc1-c1ccc([C@H](C)NC(=O)[C@@H]2C[C@@H](O)CN2C(=O)[C@@H](c2cc(N3CCC(CN4CCc5sc6nnc(-c7ccccc7O)cc6c5C4)CC3)no2)C(C)C)cc1 ≥ 50%
Cc1ncsc1-c1ccc([C@H](C)NC(=O)[C@@H]2C[C@@H](O)CN2C(=O)[C@@H](c2cc(OCCN3CCC(c4sc5nnc(-c6ccccc6O)cc5c4F)CC3)no2)C(C)C)cc1 < 50%

Next:
Write down Dmax measured for item `Cc1ncsc1-c1ccc([C@H](C)NC(=O)[C@@H]2C[C@@H](O)CN2C(=O)[C@@H](NC(=O)[C@H]2CC[C@H](c3sc4nnc(-c5ccccc5O)cc4c3C)CC2)C(C)(C)C)cc1`
< 50%

Data credit: patent US20240376121A1
